- MEASUREMENT TARGET: Protein phosphatase 1D (Homo sapiens, UniProt O15297)
- Sequence (O15297 whole entry): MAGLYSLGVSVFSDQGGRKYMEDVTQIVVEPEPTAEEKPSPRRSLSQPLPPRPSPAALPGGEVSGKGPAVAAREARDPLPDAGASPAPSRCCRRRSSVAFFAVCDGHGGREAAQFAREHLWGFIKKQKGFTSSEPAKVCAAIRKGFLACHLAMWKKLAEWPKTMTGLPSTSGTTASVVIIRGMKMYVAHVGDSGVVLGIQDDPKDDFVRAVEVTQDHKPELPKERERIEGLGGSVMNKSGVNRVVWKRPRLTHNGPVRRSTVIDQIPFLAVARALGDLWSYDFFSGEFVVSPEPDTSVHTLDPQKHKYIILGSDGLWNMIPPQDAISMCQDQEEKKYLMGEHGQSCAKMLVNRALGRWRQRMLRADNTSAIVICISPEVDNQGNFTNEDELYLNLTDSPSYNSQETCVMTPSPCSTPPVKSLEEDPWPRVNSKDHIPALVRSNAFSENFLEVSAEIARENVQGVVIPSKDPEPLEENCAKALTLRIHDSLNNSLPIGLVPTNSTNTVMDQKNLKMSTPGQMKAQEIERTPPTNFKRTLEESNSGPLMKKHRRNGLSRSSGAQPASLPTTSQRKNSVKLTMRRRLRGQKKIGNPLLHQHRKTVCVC
MEASURED METRIC: pIC50
// pIC50 is dimensionless: -log10 of concentration (M)

## Input Jot down pIC50 (Protein phosphatase 1D (Homo sapiens, UniProt O15297)) of `CC[Si](CC)(CC)O[C@@H]1C[C@H](C)C[C@@H]2[C@@H]1C[C@H](O[Si](C)(C)C(C)(C)C)[C@@H]1[C@](C)(CO)C[C@H](O)C[C@@]21C` .
## Output 6.32

Origin of the recorded values: ChEMBL document CHEMBL1938369
